- METHOD NOTES: NCI Yeast Anticancer Drug Screen. Data for the mec2-1 strain (AID 157)
- CONDITION CONTEXT: S. cerevisiae mec2-1 strain, at 50.0 µM, active compounds read high
About 79,000 compounds went through this panel and 15% of them were active in at least one assay; those are over-represented in the sample as a whole.
MEASUREMENT KIND: growth inhibition (%)
Report only the number, with the unit % understood.

Before answering, review these 8 worked examples.
C1CCC(NC2CCCC2)CC1 | 47.1
O=C(Nc1ccc(S(=O)(=O)F)cc1)c1ccc2ccccc2c1O | 31.8
CC(=O)Nc1cc([As](=O)(O)O)ccc1O | 14.3
CC1OC(=O)C2CC3CCCCC3C(/C=C/C3CCCC(C)N3C)C12 (stereo not given) | -11.2
CCCCCCP(=O)(CCCCCC)CCCCCC (tested in a mixture with another compound) | 83.6
CCC1(O)CC(OC2CC(N(C)C)C(OC3CC(O)C(OC4CCC(=O)C(C)O4)C(C)O3)C(C)O2)c2c(cc3c(c2O)C(=O)c2c(O)ccc(O)c2C3=O)C1C(=O)OC (stereo not given) | 90.9
COC(=O)c1cc([N+](=O)[O-])cc([N+](=O)[O-])c1 | 32.2
Nc1ccc(P(=O)(O)O)cc1 | -9.55

What does the record list as growth inhibition for O=C(NCC(O)CO)c1c([N+](=O)[O-])ccc(N(CCCl)CCCl)c1[N+](=O)[O-] (stereo not given) ?
-9.85

Query (compound): "O=C1OC[C@@H]2Cc3c([nH]c4ccccc34)[C@@H](c3cc(O)c(O)c(O)c3)N12" ; field requested: growth inhibition
-1.2
